Experimental System: human OX2R (Homo sapiens, UniProt O43614)
Construct: expressed in transfected cells; host or cells: CHO (Chinese hamster ovary) cells, line CHOOX2R, co-expressing NFAT-luciferase
Sequence (O43614 1-444): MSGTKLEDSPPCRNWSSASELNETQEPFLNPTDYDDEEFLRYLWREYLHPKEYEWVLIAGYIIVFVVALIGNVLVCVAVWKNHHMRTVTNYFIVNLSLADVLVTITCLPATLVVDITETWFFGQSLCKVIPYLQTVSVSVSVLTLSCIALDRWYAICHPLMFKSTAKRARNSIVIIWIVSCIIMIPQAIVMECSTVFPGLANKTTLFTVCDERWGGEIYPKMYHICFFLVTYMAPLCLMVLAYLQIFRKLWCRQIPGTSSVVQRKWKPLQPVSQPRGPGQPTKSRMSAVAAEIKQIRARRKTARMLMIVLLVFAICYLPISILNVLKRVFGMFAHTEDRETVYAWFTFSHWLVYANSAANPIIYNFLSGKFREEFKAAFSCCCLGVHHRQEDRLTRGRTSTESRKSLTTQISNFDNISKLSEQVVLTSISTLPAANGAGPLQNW
Test Details: Agonist activity against OX2R: intracellular calcium (Fura-2AM, FDSS7000) in CHOOX2R cells
Assay type: cell-based
Applied Conditions: 0.1 μM test compound; relative to orexin-A as full agonist (100%)
Measurement Kind: Response (%) OX2R

Solved cases (2 shown):
# Compound, Unit Descriptor, Observed
records = [
    ("COc1ccc(-c2cccc(C(=O)N(C)C)c2)cc1S(=O)(=O)Nc1cccc(NC(=O)Nc2cccc(C(=O)N(C)C)c2)c1 [Example 49]", "%", 26),
    ("COc1ccc(-c2cccc(C(=O)N(C)C)c2)cc1S(=O)(=O)Nc1cccc(NC(=O)Nc2ccc(NC(=O)OC(C)(C)C)cc2)c1 [Example 72]", "%", 7),
]

[I] COc1ccc(-c2cccc(C(=O)N(C)C)c2)cc1S(=O)(=O)Nc1cccc(NC(=O)Nc2cccc(NC(=O)OC(C)(C)C)c2)c1 [Example 62]
[II] COc1ccc(-c2cccc(C(=O)N(C)C)c2)cc1S(=O)(=O)Nc1cccc(NC(=O)Nc2cccc(Br)c2)c1 [Example 50]
[III] COc1ccc(-c2cccc(C(=O)N(C)C)c2)cc1S(=O)(=O)Nc1cccc(NC(=O)Nc2ccccn2)c1 [Example 68]
Req: Order field: Response (%) OX2R | Direction: descending (largest first) Answer format: the labels, in the requested order.
Resp: II, III, I

[a] COc1ccc(-c2cccc(C(=O)N(C)C)c2)cc1S(=O)(=O)Nc1cccc(NC(=O)Nc2ccc(N(C)C)nc2)c1 [Example 71]
[b] COc1ccc(-c2cccc(C(=O)N(C)C)c2)cc1S(=O)(=O)Nc1cccc(NC(=O)OCc2ccccc2)c1 [Example 73]
Req: Kindly identify which of a and b has the larger recorded Response (%) OX2R value. Return value: the label identifying the chosen record.
Resp: a

[a] COc1ccc(-c2cccc(C(=O)N(C)C)c2)cc1S(=O)(=O)Nc1cccc(NCc2ccc(C)cc2)c1 [Example 27]
[b] COc1ccc(-c2cccc(C(=O)N(C)C)c2)cc1S(=O)(=O)Nc1cccc(NC(=O)Nc2ccc([N+](=O)[O-])cc2)c1 [Example 61]
Req: Field: lower Response (%) OX2R | Options: a / b Return value: the label identifying the chosen record.
Resp: b
(b: 24%, a: 90%)

* * *

Experimental System: human OX2R (Homo sapiens, UniProt O43614)
Construct: expressed in transfected cells; host or cells: CHO (Chinese hamster ovary) cells, line CHOOX2R, co-expressing NFAT-luciferase
Test Details: Agonist activity against OX2R: intracellular calcium (Fura-2AM, FDSS7000) in CHOOX2R cells
Format: cell-based
Applied Conditions: 1.0 μM test compound; relative to orexin-A as full agonist (100%)
Protocol: Evaluation of Agonist Activity Against OX1R and OX2R […] (As used herein, Response in Table 21 to Table 27 is a value obtained by dividing the agonist activity value, when the test compound is evaluated with orexin-A as a full-agonist (maximum value of agonist activity: 100%), at 10 μM, 1.0 μM, 0.1 μM by the agonist activity value of orexin-A.)
Measurement Kind: Response (%) OX2R

# Molecule, Unit Descriptor, Response (%) OX2R
rows = [
    ("COc1ccc(-c2cccc(C(=O)N(C)C)c2)cc1S(=O)(=O)Nc1cccc(NC(=O)Nc2ccc([N+](=O)[O-])cc2)c1 [Example 61]", "%", 105),
]

[a] COc1ccc(-c2cccc(C(=O)N(C)C)c2)cc1S(=O)(=O)Nc1cccc(NC(=O)Nc2ccc(N(C)C)nc2)c1 [Example 71]
[b] COc1ccc(-c2cccc(C(=O)N(C)C)c2)cc1S(=O)(=O)Nc1cccc(NC(=O)Nc2ccc(N)cc2)c1 [Example 55]
[c] COc1ccc(-c2cccc(C(=O)N(C)C)c2)cc1S(=O)(=O)Nc1cccc(NC(=O)c2cccc(N(C)C)c2)c1 [Example 7]
Req: Arrange items by their Response (%) OX2R values in increasing order. Answer format: the labels, in the requested order.
Resp: c, b, a

* * *

Experimental System: human OX1R (Homo sapiens, UniProt O43613)
Construct: expressed in transfected cells; host or cells: CHO (Chinese hamster ovary) cells, line CHOOX1R, co-expressing NFAT-luciferase
Test Details: Agonist activity against OX1R: intracellular calcium (Fura-2AM, FDSS7000) in CHOOX1R cells
Format: cell-based
Applied Conditions: test compound 10 μM; relative to orexin-A as full agonist (100%); read-out: Response (%) OX1R
Measurement Kind: Emax at 10 µM (%)

[I] COc1ccc(-c2cccc(C(=O)N(C)C)c2)cc1S(=O)(=O)Nc1cccc(N2CCN(C(=O)c3cccc(C)c3)C2)c1
[II] COc1ccc(-c2cccc(C(=O)N(C)C)c2)cc1S(=O)(=O)Nc1cccc(/N=N/c2ccc(N(C)C)cc2CO)c1
Req: Kindly identify which of I and II has the larger recorded Emax at 10 µM value. Return value: the label identifying the chosen record.
Resp: I
(I: 20%, II: 11%)

* * *

Experimental System: human OX1R (Homo sapiens)
Construct: expressed in transfected cells; host or cells: CHO (Chinese hamster ovary) cells, line CHOOX1R, co-expressing NFAT-luciferase
Test Details: Agonist activity against OX1R: intracellular calcium (Fura-2AM, FDSS7000) in CHOOX1R cells
Format: cell-based
Applied Conditions: 10 μM test compound; relative to orexin-A as full agonist (100%)
Measurement Kind: Response (%) OX1R

Solved cases (2 shown):
# Line Notation, Unit Descriptor, Response (%) OX1R
data = [
    ("COc1ccc(-c2cccc(C(=O)N(C)C)c2)cc1S(=O)(=O)Nc1cccc(NC(=O)c2cccc(Br)c2)c1", "%", 12),
    ("COc1ccc(-c2cccc(C(=O)N(C)C)c2)cc1S(=O)(=O)Nc1cccc(NC(=O)c2cccc3ccccc23)c1", "%", 11),
]

[A] COc1ccc(-c2cccc(C(=O)N(C)C)c2)cc1S(=O)(=O)Nc1cccc(NC(=O)c2ccc(C)cc2)c1
[B] COc1ccc(-c2cccc(C(=O)N(C)C)c2)cc1S(=O)(=O)Nc1cccc(NCc2ccccc2O)c1
Req: Field: lower Response (%) OX1R | Options: A / B Return value: the label identifying the chosen record.
Resp: B

* * *

Experimental System: human OX1R (Homo sapiens)
Construct: expressed in transfected cells; host or cells: CHO (Chinese hamster ovary) cells, line CHOOX1R, co-expressing NFAT-luciferase
Sequence (O43613 1-425): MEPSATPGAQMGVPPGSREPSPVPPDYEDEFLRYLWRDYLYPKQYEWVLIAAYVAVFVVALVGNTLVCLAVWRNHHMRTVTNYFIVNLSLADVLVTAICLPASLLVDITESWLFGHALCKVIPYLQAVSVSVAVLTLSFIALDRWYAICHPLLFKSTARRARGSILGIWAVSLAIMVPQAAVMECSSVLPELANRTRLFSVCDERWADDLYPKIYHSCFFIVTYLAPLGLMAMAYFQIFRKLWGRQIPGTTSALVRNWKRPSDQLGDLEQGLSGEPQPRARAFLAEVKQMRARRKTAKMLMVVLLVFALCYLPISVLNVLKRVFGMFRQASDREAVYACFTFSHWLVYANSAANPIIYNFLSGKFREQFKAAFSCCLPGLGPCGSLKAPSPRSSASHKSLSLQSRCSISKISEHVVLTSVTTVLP
Test Details: Agonist activity against OX1R: intracellular calcium (Fura-2AM, FDSS7000) in CHOOX1R cells
Type: cell-based
Applied Conditions: read-out: Response (%) OX1R
Emax at 10 µM by entry:

# Compound, Emax at 10 µM
rows = [
    ("COc1ccc(-c2cccc(C(=O)N(C)C)c2)cc1S(=O)(=O)Nc1cccc(N(C)C(=O)Nc2cccc(N(C)C)c2)c1 [Example 125]", "< 5%"),
    ("COc1ccc(-c2cccc(C(=O)N(C)C)c2)cc1S(=O)(=O)Nc1cccc(NC(=O)Nc2cccc(N(C)C)c2)c1OC [Example 123]", "< 5%"),
    ("COc1ccc(-c2cccc(C(=O)N(C)C)c2)cc1S(=O)(=O)Nc1cccc(Nc2ccccc2)c1 [Example 30]", "< 5%"),
    ("COc1ccc(-c2cccc(C(=O)N(C)C)c2)cc1S(=O)(=O)Nc1cccc(N(C)C(=O)N(C)c2cccc(N(C)C)c2)c1 [Example 126]", "< 5%"),
    ("COc1ccc(-c2cccc(C(=O)N(C)C)c2)cc1S(=O)(=O)Nc1cccc(N2CCN(c3ccccc3)C2=O)c1 [Example 128]", "6%"),
]

Please look at the following compound next.
Req: Provide Emax at 10 µM, recorded with human OX1R (Homo sapiens), of COc1ccc(-c2cccc(C(=O)N(C)C)c2)cc1S(=O)(=O)Nc1cccc(NC(=O)N(C)c2cccc(N(C)C)c2)c1 [Example 127]
Resp: 56%
